Values from patent US20160220569A1

# EXPERIMENTAL_PROTOCOL: Compound 1 PK dosed Days 1-5 with topotecan
# Format: in vivo, human
# MEASUREMENT_PARAMETERS: human, plasma, intravenous, 200 mg/m^2 with Topotecan 1.25 mg/m^2 (Cohort 2), Day 1, Geo. Mean; read-out: t½ (converted)
# Method: Analysis of plasma concentration versus time data for calculation of standard pharmacokinetic (PK) parameters following intravenous infusion administration was conducted using Phoenix WinNonlin version 6.3 using a nominal infusion duration and scheduled blood sampling times.

MOLECULE_SMILES: CN1CCN(c2ccc(Nc3ncc4cc5n(c4n3)C3(CCCCC3)CNC5=O)nc2)CC1
half-life [h]: 7.77

* * *

# EXPERIMENTAL_PROTOCOL: 14-day oral gavage toxicokinetic study in rats
# Format: in vivo
# MEASUREMENT_PARAMETERS: both sexes, rat, plasma, po, 5 mg/kg, Mean Compound 1 Plasma Concentration, rats, oral 5 mg/kg, Day 1, 1 h, Overall

MOLECULE_SMILES: CN1CCN(c2ccc(Nc3ncc4cc5n(c4n3)C3(CCCCC3)CNC5=O)nc2)CC1
MEASUREMENT_UNITS: ng/mL
concentration at 1 h: 300

* * *

# EXPERIMENTAL_PROTOCOL: Compound 1 PK dosed Days 1-5 with topotecan
# Type: in vivo, human
# MEASUREMENT_PARAMETERS: human, plasma, intravenous, 200 mg/m^2 with Topotecan 0.75 mg/m^2 (Cohort 3), Day 1, Mean; read-out: t½ (converted)
RESULT_TYPE: half-life (h)

COMPOUND: CN1CCN(c2ccc(Nc3ncc4cc5n(c4n3)C3(CCCCC3)CNC5=O)nc2)CC1 [Compound 1]
MEASUREMENT_UNITS: h
MEASURED: 7.4

* * *

# EXPERIMENTAL_PROTOCOL: 14-day oral gavage toxicokinetic study in rats
# Assay type: in vivo
# MEASUREMENT_PARAMETERS: female, rat, plasma, po, 5 mg/kg, Individual Compound 1 Plasma Concentration, rats, daily oral 5 mg/kg, Day 14, Female, 4 h
RESULT_TYPE: concentration at 4 h (ng/mL)

MOLECULE: CN1CCN(c2ccc(Nc3ncc4cc5n(c4n3)C3(CCCCC3)CNC5=O)nc2)CC1 [Compound 1]
MEASUREMENT_UNITS: ng/mL
MEASURED: 423

* * *

# EXPERIMENTAL_PROTOCOL: 14-day oral gavage toxicokinetic study in rats
# Type: in vivo
# MEASUREMENT_PARAMETERS: female, rat, plasma, po, 15 mg/kg, Mean Compound 1 Plasma Concentration, rats, oral 15 mg/kg, Day 1, 0.5 h, Female

MOLECULE_SMILES: CN1CCN(c2ccc(Nc3ncc4cc5n(c4n3)C3(CCCCC3)CNC5=O)nc2)CC1
MEASUREMENT_UNITS: ng/mL
concentration at 0.5 h: 1180

* * *

# EXPERIMENTAL_PROTOCOL: Topotecan PK following Compound 1 infusion
# Type: in vivo, human
# MEASUREMENT_PARAMETERS: human, plasma, intravenous, Topotecan 0.75 mg/m^2 (Cohort 3) with Compound 1 200 mg/m^2, Day 1, Mean; read-out: Cmax

MOLECULE_SMILES: CC[C@@]1(O)C(=O)OCc2c1cc1n(c2=O)Cc2cc3c(CN(C)C)c(O)ccc3nc2-1.Cl
MEASUREMENT_UNITS: ng/mL
Cmax: 27.3
